The values you see were collected from PubChem BioAssay (NCATS).

- ASSAY_DETAILS: Cell Viability - LYMP1-003 - Assay at 40 hr (AID 964); further: nearly all actives have a fitted effect of over 60% in size
- TEST_CONDITIONS: LYMP1-003 lymphoblastoid viability; series mostly up to 92.2 µM
Inconclusive results are not listed. Calls of active or inactive are those of the source. The call rests on the fitted dose curve; in most records, active means well fitted cell-killing curve with a large enough effect; inconclusive means small, poorly fitted or top-dose-only effect; inactive means flat fitted curve, though single readings scatter.
Outcome codes: active, inactive

{"columns": ["COMPOUND", "DISCRETE_LABEL"],
 "data": [
  ["O=C1OC2(c3cc(Br)c(O)c(Br)c3Oc3c2cc(Br)c(O)c3Br)c2c(Cl)c(Cl)c(Cl)c(Cl)c21", "inactive"],
  ["CN1[C@H]2CC(OC(=O)[C@H](CO)c3ccccc3)C[C@H]1[C@H]1O[C@H]12 (some centres undefined)", "inactive"],
  ["ClC1=C(Cl)C(Cl)(Cl)C(Cl)=C1Cl", "inactive"],
  ["O=C=Nc1ccc(Cc2ccc(N=C=O)cc2)cc1", "inactive"],
  ["Cc1cccc(O)c1C", "inactive"],
  ["Nc1ccc2cc3ccccc3cc2c1", "inactive"],
  ["Cc1cc(O)c(C(C)(C)C)cc1Sc1cc(C(C)(C)C)c(O)cc1C", "active"],
  ["Oc1ccc2cc(SSc3ccc4cc(O)ccc4c3)ccc2c1", "active"],
  ["CCC(C)Nc1ccc(NC(C)CC)cc1 (centres undefined)", "active"],
  ["C=C(C)c1ccccc1", "inactive"],
  ["O=C(/C=C/c1ccc(O)c(O)c1)OC1C[C@](O)(C(=O)O)C[C@@H](O)[C@H]1O (some centres undefined)", "inactive"],
  ["c1cc(OCC2CO2)cc(OCC2CO2)c1 (centres undefined)", "inactive"],
  ["CCCCCC/C(C=O)=C\\c1ccccc1", "inactive"],
  ["O=[N+]([O-])c1cc([N+](=O)[O-])c2ccc(S(=O)(=O)O)cc2c1O", "inactive"]
]}

====

- ASSAY_DETAILS: AP1 Signaling Pathway (AID 357);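 further: ME-180 reporter cells stimulated with EGF at its EC50 level; on the % scale 0 is the no-effect control and ±100 the full control effect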
- TEST_CONDITIONS: ME-180 AP-1-bla reporter, EGF-induced, beta-lactamase ratio, 5 h; at 17.2 µM (top of the series) unless noted
Records with an inconclusive call do not appear.
READOUT_TYPE: activity change, negative = inhibition (%)

{"columns": ["COMPOUND", "READOUT_TYPE", "TEST_VALUE"],
 "data": [
  ["Cn1c(=O)c2c3c(sc2n2c(SCC(=O)c4ccc(Cl)cc4)nnc12)COC(C)(C)C3", "activity change, negative = inhibition", -6.68],
  ["C=CCc1cccc(/C=N/n2cnnc2)c1O", "activity change, negative = inhibition", -1.43],
  ["CCOC(=O)C1(c2nc(N)cs2)COC(=O)C1 (configuration not stated)", "activity change, negative = inhibition", 6.34],
  ["COc1ccc2c(c1)C1(C)CC(C)(C)N2C(=O)N1c1ccccc1 (configuration not stated)", "activity change, negative = inhibition", -24.6],
  ["CCC(=O)Nc1cccc(-c2nnc(SCC(=O)NCc3ccco3)n2C)c1", "activity change, negative = inhibition", -2.45],
  ["Cc1ccc(CNC(=O)c2cc3c(=O)n4ccccc4nc3n(Cc3ccco3)c2=N)cc1", "activity change, negative = inhibition", 5.13],
  ["CCOC(=O)N1CCN(C(=O)c2cn(CC)c3cc(N4CCN(C)CC4)c(F)cc3c2=O)CC1", "activity change, negative = inhibition", 8.43],
  ["COC(=O)Cn1cc(C(=O)OC)cc(Br)c1=O", "activity change, negative = inhibition", 8.29],
  ["COc1ccc(/C=C/C2=NC(=C\\N(C)C)/C(=O)O2)cc1", "activity change, negative = inhibition", -4.1],
  ["Cn1c(NCc2ccccc2)nc2c1c(=O)n(Cc1ccccc1)c(=O)n2C", "activity change, negative = inhibition", -27.4],
  ["COC(=O)CC(=O)Cc1nc(N)nc(Nc2ccc(C)c(C)c2)n1", "activity change, negative = inhibition", 9.64],
  ["Cc1cc2c(c(=O)n1Cc1ccccn1)C(c1ccc3c(c1)OCO3)C(C#N)=C(N)O2 (configuration not stated)", "activity change, negative = inhibition", -7.52],
  ["N#Cc1c(N)n(CCOC(=O)c2ccc(Cl)cc2)c2nc3ccccc3nc12", "activity change, negative = inhibition", 19.1],
  ["COc1cccc(C(=O)OCCN(C)C(C)(C)C)c1", "activity change, negative = inhibition", 2.79],
  ["COc1ccc(N2C(=O)CC(N(Cc3ccc(S(N)(=O)=O)cc3)C(C)=O)C2=O)cc1 (configuration not stated)", "activity change, negative = inhibition", 5.04],
  ["CN1CCc2c(sc3c2c(=O)n(-c2ccccc2)c2nnc(SCc4ccccc4)n32)C1", "activity change, negative = inhibition", -13.6],
  ["Cc1ccccc1-c1nn2c(-c3ccccc3)nnc2s1", "activity change, negative = inhibition", -18],
  ["COc1ccc(C2=Nn3c(nnc3-c3ccccn3)SC2)cc1", "activity change, negative = inhibition", -4.44],
  ["CCOC(=O)c1cc2cc(OC)ccc2[nH]1", "activity change, negative = inhibition", -4.55],
  ["CC(=O)[C@@]1(O)CC[C@H]2[C@@H]3CCC4=CC(=O)CC[C@]4(C)[C@H]3[C@@H](O)C[C@@]21C", "activity change, negative = inhibition", 3.13],
  ["COC(=O)CSc1nnc(C)c(=O)[nH]1", "activity change, negative = inhibition", 0.589],
  ["CC(C)Cn1nc(NC(=O)C(C)(C)C)c2cc3ccccc3nc21", "activity change, negative = inhibition", -20.3]
]}

====

- Test system: HB3
- ASSAY_DETAILS: qHTS profiling for inhibitors of Plasmodium falciparum proliferation (AID 504749); further: nearly all actives have a fitted effect of over 60% in size
- TEST_CONDITIONS: P. falciparum in erythrocytes, SYBR Green DNA, 72 h; series mostly up to 28.7 µM
- Method: NIH National Institute of Allergy and Infectious Diseases [NIAID] NIH Chemical Genomics Center [NCGC] […] Because mature erythrocytes lack DNA, only Plasmodium-derived DNA is detected. NCGC Assay Protocol Summary: The SYBR Green viability assay was adapted from a method described previously (Plouffe et al., 2008). […] The following morning, fluorescence intensity at 485(14) nm excitation and 535(25) nm emission wavelengths was measured on an EnVision (Perkin Elmer) plate reader. […]
Inconclusive results are not listed. Active and inactive are the calls of the source. The call rests on the fitted dose curve; in most records, active means well fitted inhibition curve with a large enough effect; inconclusive means small, poorly fitted or top-dose-only effect; inactive means flat fitted curve, though single readings scatter.
Outcome codes: active, inactive

{"columns": ["MOLECULE", "DISCRETE_LABEL"],
 "data": [
  ["Cc1ccccc1N1C(=O)c2cc(N)ccc2N/C1=C\\F", "inactive"],
  ["CCCC[C@H]1C(=O)N(c2ccccc2)N(c2ccc(O)cc2)C1=O", "inactive"],
  ["C=NC(C(=O)NC1C(=O)N2C1SC(C)(C)C2C(=O)O)c1ccccc1 (centres undefined)", "inactive"],
  ["C[S+](C)CC[C@H](N)C(=O)O", "inactive"],
  ["CN[C@H](C)CCC=C(C)C", "active"],
  ["C[C@]12CCC(=O)C=C1[C@@H]1C[C@H]1[C@H]1[C@@H]3[C@@H]4C[C@H]4[C@@]4(CCC(=O)O4)[C@@]3(C)CC[C@@H]12", "inactive"],
  ["CC1=C(/C=C/C(C)=C\\C=C\\C(C)=C\\C=C\\C=C(C)\\C=C\\C=C(C)\\C=C\\C2=C(C)C[C@@H](O)CC2(C)C)C(C)(C)C[C@H](O)C1", "active"],
  ["CC12C=CC(=O)C=C1[C@@H](F)CC1C2C(O)CC2(C)C1CC[C@]2(O)C(=O)CO (some centres undefined)", "inactive"],
  ["COc1cc([C@H]2c3cc4c(cc3[C@@H](O[C@H]3O[C@H]5CO[C@@H](C)O[C@H]5[C@@H](O)[C@@H]3O)[C@@H]3COC(=O)[C@H]23)OCO4)cc(OC)c1O", "inactive"]
]}

====

List of activity, negative = inhibition values.
- ASSAY_DETAILS: Stat Signaling Pathway (AID 446);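 further: ME-180 cervical cancer cells given 40 pM IL-6 alongside compound; SIE-controlled beta-lactamase reporter measured as 460/530 nm FRET emission ratio; on the % scale 0 is the no-effect control and ±100 the full control effect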
- TEST_CONDITIONS: ME-180 (cervical carcinoma) SIE beta-lactamase reporter, IL-6 stimulated, 5 h; at 17.2 µM (top of the series) unless noted
Records with an inconclusive call do not appear. Calls of active or inactive are those of the source. The call rests on the fitted dose curve; in most records, active means well fitted curve in either direction with a large enough effect (not every such curve was filed as active); inconclusive means small, poorly fitted or top-dose-only effect, or another doubt; inactive means flat fitted curve, though single readings scatter.
READOUT_TYPE: activity, negative = inhibition

{"columns": ["COMPOUND", "TEST_VALUE"],
 "data": [
  ["Cc1cc(NC(CC(C)C)C(=O)O)nc(Cc2ccccc2)n1 (stereo unspecified)", "5.49% (inactive)"],
  ["COC(=O)CCc1c(C)[nH]c(=S)[nH]c1=O", "1.45% (inactive)"],
  ["CN1CCN(c2nc3c(c(=O)n(C)c(=O)n3C)n2Cc2cccc3ccccc23)CC1", "-2.69% (inactive)"],
  ["O=S(=O)(N[C@@H]1C[C@H]2CC[C@@H]1C2)c1cccs1", "-0.621% (inactive)"],
  ["COc1ccc(/C(O)=C2/C(=O)C(=O)N(CCCN(C)C)C2c2ccc(C)o2)cc1Cl (stereo unspecified)", "3.77% (inactive)"],
  ["Cc1ccc(N(CC(=O)O)C2SC(=O)NC2=O)cc1 (stereo unspecified)", "6.57% (inactive)"],
  ["CCOC(=O)c1c(SC)nc(SC)c2c1CCC2", "-4.26% (inactive)"],
  ["COc1cc(C)nc(N(C)S(=O)(=O)c2ccccc2Cl)n1", "1.54% (inactive)"],
  ["CN1C[C@H](C(=O)N[C@]2(C)O[C@]3(O)[C@H]4CCCN4C(=O)[C@H](Cc4ccccc4)N3C2=O)C[C@H]2c3cccc4[nH]cc(c34)C[C@@H]21", "-7.06% (inactive)"],
  ["COc1cccc(CNc2ccc(Br)cn2)c1O", "-14.6% (inactive)"],
  ["N/C(CCCN1CCCCC1)=N/O", "-0.379% (inactive)"],
  ["Cc1nc2n[nH]c(N)c2c2c1COC(C)(C)C2", "3.57% (inactive)"],
  ["CCC(=O)Nc1nc2ccccc2n1Cc1ccccc1C", "2.77% (inactive)"],
  ["COc1ccc(-c2cc3nc4n(c(=O)c3s2)CCOC4)cc1", "0.631% (inactive)"],
  ["COc1cccc(NC(=O)CSC2=C(C#N)C(c3ccco3)C3=C(CCCC3=O)N2)c1 (stereo unspecified)", "-7.07% (inactive)"],
  ["C=CCN(CC=C)c1nc2ccccc2nc1C(C#N)C(=O)OC(C)C (stereo unspecified)", "-28.3% (inactive)"],
  ["Cc1cc(C)cc(-n2c3nc4ccccc4nc3c3c(=O)n(Cc4ccco4)cnc32)c1", "-16.9% (inactive)"],
  ["Cn1ccnc1C(O)c1ccc(OCc2ccccc2)cc1 (stereo unspecified)", "2.08% (inactive)"],
  ["O=C(O)CSCC(=O)Nc1ccc(S(=O)(=O)N2CCCCC2)cc1", "23% (inactive)"],
  ["CC(C)OC(=O)C(C#N)c1nc2ccccc2nc1N1CCN(Cc2ccc3c(c2)OCO3)CC1 (stereo unspecified)", "-12.7% (inactive)"],
  ["COC(=O)C(NC(=O)c1ccco1)(Nc1ccc(Br)cn1)C(F)(F)F (stereo unspecified)", "-13% (inactive)"],
  ["CCN(CC)CCNc1nc2c(c(=O)[nH]c(=O)n2C)n1CCOc1ccccc1", "8.2% (inactive)"],
  ["CCSc1nc(N)c2c3c(sc2n1)CCC3", "-3.03% (inactive)"],
  ["CCOC(=O)c1sc2c(c1C)c(=O)c(C(=O)OCC)cn2CC", "6.04% (inactive)"],
  ["O=C1CCC(=O)N1c1nc2n(n1)C(c1ccccc1)C=C(c1ccc(Br)cc1)N2 (stereo unspecified)", "-13.7% (inactive)"],
  ["CC(NC(=O)NCc1cccnc1)(C(F)(F)F)C(F)(F)F", "2.04% (inactive)"],
  ["CCCSc1nc(O)c(C2OC(=O)c3c2ccc(OC)c3OC)c(=O)n1C (stereo unspecified)", "3.93% (inactive)"],
  ["COC(=O)C(NC(C)=O)(Nc1ccc(Br)cc1)C(=O)OC", "8.85% (inactive)"],
  ["COc1c(O)ccc2cnn(-c3ccccc3C)c(=O)c12", "25.4% (inactive)"],
  ["CCn1c(SCC(=O)NCc2ccco2)nnc1-c1ccc(N)cc1", "-0.962% (inactive)"],
  ["COc1ccc(OC)c(C2C(C#N)=C(N)Oc3cc(C)[nH]c(=O)c32)c1 (stereo unspecified)", "3.99% (inactive)"],
  ["O=c1oc2cc(O)ccc2c2oc3cc(O)ccc3c12", "-5.07% (inactive)"],
  ["C=CCNc1nc(C)nc(OC)n1", "4.41% (inactive)"],
  ["CCN(CC)CCN1C(=O)C(=O)/C(=C(/O)c2ccc(F)cc2)C1c1cccnc1 (stereo unspecified)", "-0.766% (inactive)"],
  ["CC(=O)C(=[N+]=[N-])C(=O)NCc1ccccc1", "1.88% (inactive)"],
  ["Cc1cc(=O)oc2cc(OCCSCCN3CCOCC3)ccc12", "-0.537% (inactive)"],
  ["CC(C)Cc1nc2n[nH]c(N)c2c2c1CCC2", "-5.62% (inactive)"],
  ["CCOC(=O)c1ccc(N=CC2=C(O)CC(c3ccco3)CC2=O)cc1 (stereo unspecified)", "-4% (inactive)"],
  ["Cn1c2c(c(=O)n(C)c1=O)C(NC(=O)C(C)(C)C)(C(F)(F)F)C(=O)N2 (stereo unspecified)", "6.52% (inactive)"],
  ["Cc1cc(N2CCCCC2)nc2ccc(Cc3ccc4nc(N5CCCCC5)cc(C)c4c3)cc12", "8.27% [at 7.69 µM] (inactive)"],
  ["Cc1cc(C)c2nc(SCCC#N)nc(C)c2c1", "6.57% (inactive)"],
  ["COc1ccc(CN2CCC(=O)NC2=O)cc1", "9.56% (inactive)"],
  ["CCn1cc(/C=N/O)c(C)n1", "14% (inactive)"],
  ["CSc1nc2[nH]c3c(c2c2nnnn12)CCCC3", "-10.8% (inactive)"],
  ["CCOC(=O)c1c(NC(=O)CN2CCOCC2)sc2c1CC(C)(C)OC2", "-6.32% (inactive)"],
  ["CC(NC(=O)c1ccc(=O)oc1)c1ccccc1 (stereo unspecified)", "6.96% (inactive)"]
]}
